Numbers sourced from BigSolDB 2.1.

Details: in 2-butanone, 283.15 K
measuredProperty: solubility (mole fraction)

[[record]]
molecularstring = "Nc1cc(Cl)ccc1[N+](=O)[O-]"
measuredproperty = "solubility (mole fraction)"
recordedresult = 0.141


----------
Conditions: in ethanol, 288.15 K
measuredProperty: solubility (mole fraction)

[[record]]
molecularstring = "Nc1cc(Cl)ccc1[N+](=O)[O-]"
recordedresult = 0.0184


----------
Conditions: in methanol, 293.15 K
measuredProperty: solubility (mole fraction)

[[record]]
molecularstring = "Nc1cc(Cl)ccc1[N+](=O)[O-]"
recordedresult = 0.0142


----------
Conditions: in n-butanol, 298.15 K
measuredProperty: solubility (mole fraction)

[[record]]
molecularstring = "Nc1cc(Cl)ccc1[N+](=O)[O-]"
recordedresult = 0.0283


----------
Conditions: in methanol, 308.15 K
measuredProperty: solubility (mole fraction)

[[record]]
molecularstring = "Nc1cc(Cl)ccc1[N+](=O)[O-]"
measuredproperty = "solubility (mole fraction)"
recordedresult = 0.0235


----------
Conditions: in isobutanol, 313.15 K
measuredProperty: solubility (mole fraction)

[[record]]
molecularstring = "Nc1cc(Cl)ccc1[N+](=O)[O-]"
recordedresult = 0.0308


----------
Conditions: in ethanol, 313.15 K
measuredProperty: solubility (mole fraction)

[[record]]
molecularstring = "Nc1cc(Cl)ccc1[N+](=O)[O-]"
recordedresult = 0.0373


----------
Details: in 2-butanone, 308.15 K
measuredProperty: solubility (mole fraction)

[[record]]
molecularstring = "Nc1cc(Cl)ccc1[N+](=O)[O-]"
measuredproperty = "solubility (mole fraction)"
recordedresult = 0.203


----------
Details: in methyl acetate, 313.15 K
measuredProperty: solubility (mole fraction)

[[record]]
molecularstring = "Nc1cc(Cl)ccc1[N+](=O)[O-]"
recordedresult = 0.178


----------
Details: in methanol, 313.15 K
measuredProperty: solubility (mole fraction)

[[record]]
molecularstring = "Nc1cc(Cl)ccc1[N+](=O)[O-]"
recordedresult = 0.027


----------
Details: in water, 323.15 K
measuredProperty: solubility (mole fraction)

[[record]]
molecularstring = "Nc1cc(Cl)ccc1[N+](=O)[O-]"
recordedresult = "4.78e-05"


----------
Details: in water, 308.15 K
measuredProperty: solubility (mole fraction)

[[record]]
molecularstring = "Nc1cc(Cl)ccc1[N+](=O)[O-]"
recordedresult = "2.73e-05"


----------
Conditions: in methanol, 323.15 K
measuredProperty: solubility (mole fraction)

[[record]]
molecularstring = "Nc1cc(Cl)ccc1[N+](=O)[O-]"
recordedresult = 0.0374


----------
Settings: in acetone, 318.15 K
measuredProperty: solubility (mole fraction)

[[record]]
molecularstring = "Nc1cc(Cl)ccc1[N+](=O)[O-]"
measuredproperty = "solubility (mole fraction)"
recordedresult = 0.242


----------
Settings: in water, 293.15 K
measuredProperty: solubility (mole fraction)

[[record]]
molecularstring = "Nc1cc(Cl)ccc1[N+](=O)[O-]"
measuredproperty = "solubility (mole fraction)"
recordedresult = "1.22e-05"


----------
Details: in acetonitrile, 293.15 K
measuredProperty: solubility (mole fraction)

[[record]]
molecularstring = "Nc1cc(Cl)ccc1[N+](=O)[O-]"
measuredproperty = "solubility (mole fraction)"
recordedresult = 0.0428


----------
Conditions: in n-butanol, 318.15 K
measuredProperty: solubility (mole fraction)

[[record]]
molecularstring = "Nc1cc(Cl)ccc1[N+](=O)[O-]"
measuredproperty = "solubility (mole fraction)"
recordedresult = 0.0481


----------
Conditions: in n-propanol, 313.15 K
measuredProperty: solubility (mole fraction)

[[record]]
molecularstring = "Nc1cc(Cl)ccc1[N+](=O)[O-]"
measuredproperty = "solubility (mole fraction)"
recordedresult = 0.0373


----------
Conditions: in methyl acetate, 298.15 K
measuredProperty: solubility (mole fraction)

[[record]]
molecularstring = "Nc1cc(Cl)ccc1[N+](=O)[O-]"
measuredproperty = "solubility (mole fraction)"
recordedresult = 0.133


----------
Conditions: in acetone, 283.15 K
measuredProperty: solubility (mole fraction)

[[record]]
molecularstring = "Nc1cc(Cl)ccc1[N+](=O)[O-]"
measuredproperty = "solubility (mole fraction)"
recordedresult = 0.126


----------
Details: in acetone, 313.15 K
measuredProperty: solubility (mole fraction)

[[record]]
molecularstring = "Nc1cc(Cl)ccc1[N+](=O)[O-]"
recordedresult = 0.219


----------
Settings: in methanol, 303.15 K
measuredProperty: solubility (mole fraction)

[[record]]
molecularstring = "Nc1cc(Cl)ccc1[N+](=O)[O-]"
recordedresult = 0.019


----------
Conditions: in n-propanol, 283.15 K
measuredProperty: solubility (mole fraction)

[[record]]
molecularstring = "Nc1cc(Cl)ccc1[N+](=O)[O-]"
measuredproperty = "solubility (mole fraction)"
recordedresult = 0.0161


----------
Conditions: in isobutanol, 283.15 K
measuredProperty: solubility (mole fraction)

[[record]]
molecularstring = "Nc1cc(Cl)ccc1[N+](=O)[O-]"
measuredproperty = "solubility (mole fraction)"
recordedresult = 0.0116


----------
Conditions: in isopropanol, 318.15 K
measuredProperty: solubility (mole fraction)

[[record]]
molecularstring = "Nc1cc(Cl)ccc1[N+](=O)[O-]"
measuredproperty = "solubility (mole fraction)"
recordedresult = 0.0451


----------
Settings: in water, 303.15 K
measuredProperty: solubility (mole fraction)

[[record]]
molecularstring = "Nc1cc(Cl)ccc1[N+](=O)[O-]"
recordedresult = "2.18e-05"


----------
Details: in n-propanol, 308.15 K
measuredProperty: solubility (mole fraction)

[[record]]
molecularstring = "Nc1cc(Cl)ccc1[N+](=O)[O-]"
recordedresult = 0.0315


----------
Settings: in methyl acetate, 323.15 K
measuredProperty: solubility (mole fraction)

[[record]]
molecularstring = "Nc1cc(Cl)ccc1[N+](=O)[O-]"
measuredproperty = "solubility (mole fraction)"
recordedresult = 0.214


----------
Settings: in ethanol, 298.15 K
measuredProperty: solubility (mole fraction)

[[record]]
molecularstring = "Nc1cc(Cl)ccc1[N+](=O)[O-]"
measuredproperty = "solubility (mole fraction)"
recordedresult = 0.0243


----------
Conditions: in acetonitrile, 288.15 K
measuredProperty: solubility (mole fraction)

[[record]]
molecularstring = "Nc1cc(Cl)ccc1[N+](=O)[O-]"
recordedresult = 0.036


----------
Conditions: in water, 298.15 K
measuredProperty: solubility (mole fraction)

[[record]]
molecularstring = "Nc1cc(Cl)ccc1[N+](=O)[O-]"
recordedresult = "1.77e-05"


----------
Conditions: in isopropanol, 298.15 K
measuredProperty: solubility (mole fraction)

[[record]]
molecularstring = "Nc1cc(Cl)ccc1[N+](=O)[O-]"
recordedresult = 0.0232


----------
Settings: in n-propanol, 298.15 K
measuredProperty: solubility (mole fraction)

[[record]]
molecularstring = "Nc1cc(Cl)ccc1[N+](=O)[O-]"
measuredproperty = "solubility (mole fraction)"
recordedresult = 0.0246


----------
Settings: in isobutanol, 318.15 K
measuredProperty: solubility (mole fraction)

[[record]]
molecularstring = "Nc1cc(Cl)ccc1[N+](=O)[O-]"
recordedresult = 0.0361


----------
Settings: in isopropanol, 293.15 K
measuredProperty: solubility (mole fraction)

[[record]]
molecularstring = "Nc1cc(Cl)ccc1[N+](=O)[O-]"
recordedresult = 0.0197


----------
Details: in ethanol, 308.15 K
measuredProperty: solubility (mole fraction)

[[record]]
molecularstring = "Nc1cc(Cl)ccc1[N+](=O)[O-]"
recordedresult = 0.0317


----------
Conditions: in ethyl acetate, 308.15 K
measuredProperty: solubility (mole fraction)

[[record]]
molecularstring = "Nc1cc(Cl)ccc1[N+](=O)[O-]"
recordedresult = 0.158


----------
Details: in acetone, 293.15 K
measuredProperty: solubility (mole fraction)

[[record]]
molecularstring = "Nc1cc(Cl)ccc1[N+](=O)[O-]"
measuredproperty = "solubility (mole fraction)"
recordedresult = 0.152

